IC50 values by entry
experiment: Cytotoxicity against human BC cells; assay type: cell-based
# number only, unit µM dropped from output

>>> observed_measurement("COc1cc(/C=C\\c2ccc(OC)cc2OC)cc(OC)c1")
1

Challenge: Which IC50 reading was recorded for the molecule "COc1cc(O)cc(/C=C/c2ccc(O)cc2OC)c1" ?
Response given: 10.8

Challenge: Continue with "COc1cc(O)cc(/C=C/c2ccc(OC)cc2O)c1"
Response given: 13.9

Challenge: Continue with "COc1cccc2c1C(=O)c1c(O)c3c(c(O)c1C2=O)C[C@@](O)(C(=O)CO)C[C@@H]3O[C@H]1C[C@H](N)[C@H](O)[C@H](C)O1"
Response given: 0.5

----------
IC50 values by entry
experiment: Cytotoxicity against human BC cells; type: cell-based
# number only, unit µM dropped from output

A selection of reference data follows.
>>> observed_measurement("Cc1c2ccncc2c(C)c2c1[nH]c1ccccc12 [ELLIPTECINE]")
2.7
>>> observed_measurement("COc1cc(O)ccc1/C=C/c1cc(O)cc(O)c1")
66.6

Challenge: Which IC50 reading was recorded for the compound "COc1cc(/C=C/c2ccc(OC)cc2OC)cc(OC)c1" ?
Response given: 5.6

meta.source: ChEMBL document CHEMBL1139674
